FYI, the data here is from patent US20080051438A1.

- Tested on: hypertensive patients
- Method Summary: Special investigation of combined use of cilnidipine and ARB: changes in systolic and diastolic blood pressure
- Format: in vivo, human
- Condition Notes: named ARB + 10 mg cilnidipine after switch from 5 mg amlodipine; 12 weeks or later to the last measurement
Measure Name: diastolic BP
Please don't drop the unit; write it after the number.

CCOc1nc2cccc(C(=O)O)c2n1Cc1ccc(-c2ccccc2-c2nnn[nH]2)cc1    78.58 mmHg

Check the records and state diastolic BP for CCCc1nc2c(C)cc(-c3nc4ccccc4n3C)cc2n1Cc1ccc(-c2ccccc2C(=O)O)cc1 83.08 mmHg

Check the records and state diastolic BP for CCCCc1nc(Cl)c(CO)n1Cc1ccc(-c2ccccc2-c2nn[nH]n2)cc1 79.78 mmHg

Check the records and state diastolic BP for CCCCC(=O)N(Cc1ccc(-c2ccccc2-c2nnn[nH]2)cc1)[C@H](C(=O)O)C(C)C 80.74 mmHg

* * *

- Tested on: hypertensive patients
- Method Summary: Special investigation of combined use of cilnidipine and ARB: changes in systolic and diastolic blood pressure
- Format: in vivo, human
- Condition Notes: on named ARB + 5 mg amlodipine, at switch of amlodipine to 10 mg cilnidipine; doses unchanged
Measure Name: diastolic BP (mmHg)
Numeric only. Scale: mmHg

Check the records and state diastolic BP for CCCCC(=O)N(Cc1ccc(-c2ccccc2-c2nnn[nH]2)cc1)[C@H](C(=O)O)C(C)C 89.36

Check the records and state diastolic BP for CCCc1nc2c(C)cc(-c3nc4ccccc4n3C)cc2n1Cc1ccc(-c2ccccc2C(=O)O)cc1 86.15

Check the records and state diastolic BP for CCCCc1nc(Cl)c(CO)n1Cc1ccc(-c2ccccc2-c2nn[nH]n2)cc1 82.00

Check the records and state diastolic BP for CCOc1nc2cccc(C(=O)O)c2n1Cc1ccc(-c2ccccc2-c2nnn[nH]2)cc1 82.90

* * *

- Tested on: hypertensive patients
- Method Summary: Special investigation of combined use of cilnidipine and ARB: changes in systolic and diastolic blood pressure
- Type: in vivo, human
- Condition Notes: named ARB + cilnidipine only; 12 weeks after starting the combined administration
Measure Name: systolic BP
Please don't drop the unit; write it after the number.

CCOc1nc2cccc(C(=O)O)c2n1Cc1ccc(-c2ccccc2-c2nnn[nH]2)cc1 [candesartan]    141.29 ± 17.02 mmHg

Check the records and state systolic BP for CCCCc1nc(Cl)c(CO)n1Cc1ccc(-c2ccccc2-c2nn[nH]n2)cc1 [losartan] 139.52 ± 14.43 mmHg

Check the records and state systolic BP for CCCc1nc2c(C)cc(-c3nc4ccccc4n3C)cc2n1Cc1ccc(-c2ccccc2C(=O)O)cc1 [telmisartan] 143.64 ± 12.53 mmHg

Check the records and state systolic BP for CCCCC(=O)N(Cc1ccc(-c2ccccc2-c2nnn[nH]2)cc1)[C@H](C(=O)O)C(C)C [valsartan] 138.32 ± 14.28 mmHg

* * *

Recorded systolic BP, one value per entry.
- Tested on: hypertensive patients
- Method Summary: Special investigation of combined use of cilnidipine and ARB: changes in systolic and diastolic blood pressure
- Type: in vivo, human
- Condition Notes: on named ARB + 5 mg amlodipine, at switch of amlodipine to 10 mg cilnidipine; doses unchanged
Numeric only. Scale: mmHg

CCCc1nc2c(C)cc(-c3nc4ccccc4n3C)cc2n1Cc1ccc(-c2ccccc2C(=O)O)cc1    155.00
CCOc1nc2cccc(C(=O)O)c2n1Cc1ccc(-c2ccccc2-c2nnn[nH]2)cc1    152.10

Check the records and state systolic BP for CCCCC(=O)N(Cc1ccc(-c2ccccc2-c2nnn[nH]2)cc1)[C@H](C(=O)O)C(C)C 158.15

Check the records and state systolic BP for CCCCc1nc(Cl)c(CO)n1Cc1ccc(-c2ccccc2-c2nn[nH]n2)cc1 150.35
